System: Noggin (protein binding on small-molecule microarray)
Assay: Noggin binders on small-molecule microarray, primary screen, biochemical, 635/667 nm fluorescence (AID 1095);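 further: score merges 667 nm feature fluorescence with signal to noise over triplicate slides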
Details: 635 nm fluorescence, higher = more signal
Lab note: anything with composite z-score at or over 0.9 counts as rule met; the rest go in rule not met.

[[record]]
molecule = "COCCOC(=O)N1C(=O)[C@@]2(c3ccccc31)[C@H](C(=O)Nc1nc3ccccc3s1)[C@H]1C(=O)O[C@H](c3ccccc3)[C@H](c3ccccc3)N1[C@@H]2c1ccc(OCCO)cc1"
label_class = "rule met"

[[record]]
molecule = "CCOC(=O)C[C@H]1[C@H](OC(=O)Cc2ccc3c(c2)OCO3)[C@@H](NC(=O)C2CCCCC2)c2cc(OCCCO)ccc2N1C(=O)Cc1ccc(OC)cc1"
label_class = "rule not met"

[[record]]
molecule = "C=CCOC(=O)[C@H]1[C@@H]2C(=O)O[C@@H](c3ccccc3)[C@@H](c3ccccc3)N2[C@@H](c2ccc(OCCOC(=O)[C@@H]3C[C@@H]4C(=O)NCC(=O)N4[C@@H]3c3ccc(O)cc3)cc2)[C@]12C(=O)Nc1ccccc12"
label_class = "rule met"


Continue with the molecule presented below.
Challenge: Is composite z-score at least 0.9? Consider O=C1O[C@H](c2ccccc2)[C@H](c2ccccc2)N2[C@H]1[C@@H](C(=O)O)[C@]1(C(=O)Nc3ccc(C#CC4=CCCCC4)cc31)[C@H]2c1ccc(OCCO)cc1
Response given: rule met

* * *

Experiment: E. coli DRC41 culture turbidity changes, primary screen, E. coli filamentation inducer project, strain DRC41, OD650, 48 h (AID 1152);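 further: E. coli MC1000 strain DRC41 lacking acrAB efflux pump and sulA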
Conditions: E. coli DRC41 (acrAB sulA), higher = more signal, called active from +8 up or from −8 down
READOUT: z-score
Lab note: jot down the number only; don't add units.

[[record]]
compound = "COC(=O)c1ccc(C(O)C2C=CC3C(=O)N(C)C(=O)C3N2NC(=O)OC(C)(C)C)o1 (stereo unspecified)"
reported_result = -1.31

[[record]]
compound = "COc1ccc([Si](C)(C)[C@@H]2[C@@H](CC(=O)N3CCC[C@H]3CO)O[C@]3(C(=O)N(C)c4c(Br)cc(C)cc43)[C@H]2C)cc1"
reported_result = -0.674

[[record]]
compound = "COCCOC(=O)N1C(=O)[C@@]2(c3cc(C#CCCO)ccc31)[C@H](c1ccccc1OCCO)N1[C@H](c3ccccc3)[C@H](c3ccccc3)OC(=O)[C@H]1[C@@H]2C(=O)N1CCN(c2ncccn2)CC1"
reported_result = -0.33


Next item in the queue.
Challenge: Which z-score is listed for Cc1ccc(S[C@]2(C(=O)NC3CC3)CC(=O)N(Cc3ccccc3)[C@@H]2c2ccc(CO)cc2)cc1 ?
Response given: -0.485

* * *

Test: CREB reporter modulators under forskolin, primary screen, cell-based, PC12, CRE-LacZ reporter, forskolin-stimulated (AID 1146);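 further: PC12 cells with 6xCRE LacZ reporter stimulated by forskolin 10 µM; beta-galactosidase reporter signal reflecting CREB driven transcription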
Conditions: luminescence, 4.5 h, higher = more signal, called active from +8 up or from −8 down
Lab note: anything with z-score at or over 0.1 counts as fulfilled; the rest go in not fulfilled.

[[record]]
compound = "O=C1N(CCS(=O)(=O)c2ccccc2)c2ccccc2C[C@@]12COC(c1ccc(OCCCO)cc1)=N2"
label_class = "not fulfilled"

[[record]]
compound = "CC(C)C(=C=CC[C@@H](O)c1ccccc1OCCO)C[C@@H](O)c1ccccn1"
label_class = "not fulfilled"

[[record]]
compound = "O=C1OCCC=C[C@H]2OC34C=CCN(Cc5ccccc5)C(=O)[C@H]3N(CCCCCO)C(=O)[C@@H]4C12 (stereo not given in full)"
label_class = "not fulfilled"

[[record]]
compound = "CCC(CC)C(O)C1C=CC2C(=O)N(c3ccccc3)C(=O)C2N1Nc1ccc(C#N)cc1 (stereo not given)"
label_class = "fulfilled"

[[record]]
compound = "CC(C)OC(=O)CC(=O)CC(O)c1ccc(C#N)cc1 (stereo not given)"
label_class = "not fulfilled"

[[record]]
compound = "COc1ccc([Si](C)(C)[C@@H]2[C@@H](CCn3cc([C@H](O)c4ccccc4)nn3)O[C@]3(C(=O)N(Cc4ccc(N5C(=O)c6cccc7cccc5c67)cc4)c4ccccc43)[C@H]2C)cc1"
label_class = "not fulfilled"

[[record]]
compound = "O=C1C[C@]2(c3ccc([N+](=O)[O-])cc3)C(=O)N(CC(F)(F)F)c3cc(CO)ccc3[C@H]2N1CC12CC3CC(CC(C3)C1)C2"
label_class = "not fulfilled"

[[record]]
compound = "CCOC(=O)C[C@H]1[C@H](OC(=O)c2ccc(-c3ccccc3)cc2)[C@@H](NC(=O)c2ccc3ccccc3c2)c2cc(OCCCO)ccc2N1C(=O)Cc1ccc(OC)cc1"
label_class = "fulfilled"


Challenge: Is z-score at least 0.1? Consider COc1ccc(CCN2C(=O)[C@@]3(Cc4ccccc42)c2ccccc2C(=O)N(Cc2ccccc2Cl)[C@H]3c2ccc(CO)cc2)cc1
Response given: fulfilled

Challenge: Is z-score at least 0.1? Consider COC(=O)c1ccc(C(O)C2C=CC3C(=O)N(C)C(=O)C3N2NC(=O)OC(C)(C)C)o1 (stereo not given)
Response given: fulfilled
